Hey, just so you know, these numbers are from paper PMC10397247.

Target: T1, 4H883-bA
T1 chain: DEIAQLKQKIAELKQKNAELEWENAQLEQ
Assay: two-hybrid library CCNG1;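 note: natural log of median RNA to DNA barcode read ratio; higher means stronger binding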
attribute measured: interaction score

Worked set:
{"binder": "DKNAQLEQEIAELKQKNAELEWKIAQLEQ [4H3189-bA]", "interaction score": -1.22}
{"binder": "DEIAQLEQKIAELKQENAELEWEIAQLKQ [4H338-bA]", "interaction score": -0.973}
{"binder": "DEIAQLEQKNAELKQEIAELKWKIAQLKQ [4H462-bA]", "interaction score": -1.19}
{"binder": "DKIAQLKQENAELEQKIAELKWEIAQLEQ [4H2729-bA]", "interaction score": -1.72}
{"binder": "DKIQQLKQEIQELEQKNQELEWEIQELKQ [4H2610-bN]", "interaction score": 0.288}

1. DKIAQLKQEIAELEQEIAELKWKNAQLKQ [4H2576-bA]
2. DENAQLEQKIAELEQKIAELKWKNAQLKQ [4H1328-bA]
// compare measured interaction score, left 1 , right 2 , return larger Write the label of whichever entry you select.
1
